Test system: HCC-2998 colon
Experiment Summary: NCI tumour cell line growth inhibition, 48 h
Each entry below lists one item and its recorded TGI value.
Measured Attribute: TGI

O=C1Oc2cc3c(c4cccc1c24)OCN(c1ccccc1)C3; > 100 µM
c1ccc(-c2cc(-c3ccncc3)cc(-c3ccncc3)n2)cc1; > 100 µM
CC(=O)OCC1OC([Se-])C(OC(C)=O)C(OC(C)=O)C1OC(C)=O.N#CCC[PH+](CCC#N)CCC#N.[Au+] (stereo unspecified); 43.4 µM
C/C(=C\CNc1ncnc2c1ncn2CCC(=O)OC(C)(C)C)CO; > 100 µM
O=C(NCCc1ccccc1)c1cc(/C=C/c2cc(O)ccc2O)ccc1O; 21.7 µM
N#Cc1ccc(C(C2C(=O)NC(=O)NC2=O)C2C(=O)NC(=O)NC2=O)cc1; > 100 µM
COC(=O)[C@@H](OC(C)=O)[C@@H](OC(C)=O)c1nnc2ccc(Cl)nn12; > 100 µM
Cc1cc(C)c(NC(=O)/C=C/c2ccccc2)c(C)c1; > 100 µM
O=C(Nc1ccccc1)c1cccc([N+](=O)[O-])c1; > 100 µM
Cc1cc2c(cc1C)[n+](=O)c(C(=O)CC(=O)C(=O)Nc1ccccc1C(C)C)c(C)n2[O-]; > 100 µM
COc1cc2c(cc1O)Cc1c-2[n+](C)cc2cc(OC)c(OC)cc12; > 100 µM

* * *

Tested on: MCF7 breast
Experiment Summary: NCI tumour cell line growth inhibition, 48 h
Measured Attribute: TGI (µM)

O=C(O)c1ccc(C(=O)O)c(C(=O)O)c1.[NH-]C1CCCCC1[NH-].[Pt+2]; 31.9
COc1ccc(/C=C/C(=O)c2ccc(Nc3nc(Nc4ccc(F)cc4)nc(Nc4ccc(Cl)cc4)n3)cc2)cc1; 31.7
O=[N+]([O-])/C=C/c1cc2ccc3ccccc3c2[nH]1; 4.29
CCN(CC)CC(O)COc1c(Br)c(Br)c(Br)c2c1OC(C)(C)C2 (stereo not given); 4.06
O=C1/C(=C\c2ccccc2)CN(C(=O)c2ccccc2)C/C1=C\c1ccccc1; 1.69
O=C(Cc1ccc(Nc2ccnc(C(F)(F)F)c2)cc1)N/N=C/c1ccccc1O; 23.7
COC(=O)c1ccc(C)cc1C1CN=NC12Cc1cc(C)ccc1C2=O (stereo not given); 24
C(=N\NC1=NCCN1)/c1cccc2cc3ccncc3nc12; 14.5

* * *

Each entry below lists one item and its recorded TGI value.
Test system: ACHN renal
Experiment Summary: NCI tumour cell line growth inhibition, 48 h
Measured Attribute: TGI

CN(C)CC1CCCCCCCCCCCCC(CN(C)C)C1=O (stereo not given); 29.9 µM
COC1=CC(=O)OC(/C=C(C)/C=C/C2=C(C)CCCC2(C)C)C1 (stereo not given); > 100 µM
O=C(N/C=C/C=C/Sc1ccccc1)OCc1ccccc1; 68.9 µM
COc1cc2c3c(n(CCCN4CCCNCC4)c(=O)c2cc1OC)-c1cc2c(cc1C3=O)OCO2; 0.751 µM
C/C(=N/NC(=S)N1CC2CCC(CC2)C1)c1cnccn1; 10.1 µM
c1ccc(-c2cc(-c3ccncc3)cc(-c3ccncc3)n2)cc1; > 100 µM
Cc1cc(C)nc(NCCC(O)(P(=O)(O)O)P(=O)(O)O)n1; > 100 µM
OCC1OC(n2cnc3c(SCc4ccccc4)ncnc32)C(O)C1O (stereo not given); > 100 µM
O=C(Cc1ccccc1)N/N=C(/c1nc2ccc([N+](=O)[O-])cc2[nH]c1=O)C(O)c1ccc(C(O)/C(=N/NC(=O)Cc2ccccc2)c2nc3ccc([N+](=O)[O-])cc3[nH]c2=O)cc1 (stereo not given); > 100 µM
CC1=NC=C(O)c2ccccc2O1; > 100 µM
